Documented Kd across a set of binders
- target_entity: T1, full length recombinant human 2N4R tau (human, UniProt P10636 1-758)
- T1 construct: bought from rPeptide; pHrodo Red maleimide-labelled where it stands in uptake assays; also called tau1-441; full length tau
- assay_explanation: SPR SCK, IgG on Protein A, tau in flow
Report the figure in nM without appending any unit label.

INSERT INTO measurements (binder, measurement_units, quantitative_result) VALUES
  ('#44 VH2VK4 humanised hIgG1 (antibody, V domains shown, also called VH2Vκ4) VH: QSVQESGPGLVKPSETLSLTCTVSGIDLSSYAMAWVRQAPGKGLEWIGCIDRRGGTFYASWVKGRFTISKTSTTVDLQMTSLTAEDTATYFCARDSGAFDPWGQGTLVTVSS VL: DIQMTQSPSSLSASVGDRVTITCQASQSVYDNYLAWYQQKPGQPPKLLIHAASNLASGVPSRFSGSGSGTEFTLTISSLQPDDFATYYCLGEFSCTTTDCNVFGGGTKVEIK', 'nM', 5.33),
  ('#44 VH3VK3 humanised hIgG1 (antibody, V domains shown, also called VH3Vκ3; Clone VH3VK3 (A)) VH: QVQLQESGPGLVKPSETLSLTCTVSGIDLSSYAMAWVRQAPGKGLEWIGCIDRRGGTFYASWVKGRFTISKTSTTVDLQMTSLTAEDTATYFCARDSGAFDPWGQGTLVTVSS VL: DIQMTQSPSSLSASVGDRVTITCQASQSVYDNYLAWYQQKPGQPPKLLIHAASNLASGVPSRFKGSGSGTEFTLTISSLQPDDFATYYCLGEFSCTTTDCNVFGGGTKVEIK', 'nM', 7.71);

Okay, now this binder:
Reported Kd for #44 VH4VK3 humanised hIgG1 (antibody, V domains shown, also called VH4Vκ3; Clone VH4VK3 (D)) VH: QVQLQESGPGLVKPSETLSLTCTVSGIDLSSYAMAWVRQAPGKGLEWIGCIDRRGGTFYASWVKGRFTISKDTSKTTVDLQMTSLTAEDTATYFCARDSGAFDPWGQGTLVTVSS VL: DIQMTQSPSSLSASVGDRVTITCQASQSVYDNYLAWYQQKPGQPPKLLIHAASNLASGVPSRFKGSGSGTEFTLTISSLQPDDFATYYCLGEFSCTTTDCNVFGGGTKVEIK : what is it? 6.68

Numbers sourced from patent US20250270301A1.
